# Tested on: dopamine (D-2) receptors (Rattus norvegicus)
# Construct: the corpus striatum was dissected and homogenized; from tissue; host or cells: rat corpus striatum membranes
# Sequence (P61169 whole entry): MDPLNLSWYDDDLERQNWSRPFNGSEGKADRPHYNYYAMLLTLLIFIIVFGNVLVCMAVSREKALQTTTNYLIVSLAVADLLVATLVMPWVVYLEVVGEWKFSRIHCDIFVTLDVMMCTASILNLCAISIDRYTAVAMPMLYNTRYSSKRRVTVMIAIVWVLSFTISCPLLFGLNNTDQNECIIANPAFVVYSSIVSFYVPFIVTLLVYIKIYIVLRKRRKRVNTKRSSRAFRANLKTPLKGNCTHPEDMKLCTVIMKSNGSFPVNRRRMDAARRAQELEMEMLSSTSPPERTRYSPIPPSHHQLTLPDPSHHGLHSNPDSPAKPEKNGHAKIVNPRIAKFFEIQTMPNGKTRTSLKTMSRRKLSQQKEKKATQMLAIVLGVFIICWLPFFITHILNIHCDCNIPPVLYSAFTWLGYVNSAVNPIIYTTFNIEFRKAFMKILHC
# Protocol description: In Vitro Dopamine (D-2) Receptor Binding, [3H]sulpiride
# Condition label: rat corpus striatum; 3 nM [3H]sulpiride; read-out: Dopamine D-2 [3H]sulpiride Ki
We label by threshold. Values of Ki strictly beneath 3000 nM are MET. Values of 3000 nM and up are NOT MET.

{"columns": ["Compound", "Assigned label"],
 "data": [
  ["OCCCN1C2CCC1c1c([nH]c3ccc(F)cc13)C2 (centres unmarked) [4 F H (CH2)3 OH 2]", "NOT MET"],
  ["c1ccc(CCCCCN2C3CCC2c2c([nH]c4ccccc24)C3)cc1 (centres unmarked) [1 H H (CH2)5 Ph 2]", "MET"],
  ["CN1C2CCC1c1c([nH]c3ccccc13)C2 (centres unmarked) [3 H H -- CH3 2]", "NOT MET"],
  ["CC(CCc1ccccc1)N1C2CCC1c1c([nH]c3ccccc13)C2 (single isomer, unassigned) [1 (low Rf) H H CH(CH3)(CH2)2 Ph 2]", "MET"],
  ["O=C1c2ccccc2C(=O)N1CCN1C2CCC1c1c([nH]c3ccccc13)C2 (centres unmarked) [6 H H (CH2)2 2-phthalimido 2]", "NOT MET"],
  ["c1ccc(CCCN2C3CCC2c2c([nH]c4ccccc24)C3)cc1 (centres unmarked) [1 H H (CH2)3 Ph 2]", "MET"],
  ["C(=C\\c1ccccc1)/CN1C2CCC1c1c([nH]c3ccccc13)C2 (centres unmarked) [1 H H E-CH2 CHCH Ph 2]", "MET"],
  ["CN(CCc1ccc(Cl)c(Cl)c1)CCN1C2CCC1c1c([nH]c3ccccc13)C2 (centres unmarked) [9 H H (CH2)2 N(CH3)CH2 CH2-3,4-Cl2 Ph 2]", "MET"]
]}

====

# Tested on: sigma receptor ([3H](+)-3-PPP site) (Cavia porcellus)
# Construct: frozen guinea pig brains; tissue PelFreez Biologicals, Rogers, AK; host or cells: guinea pig brain membranes
# Sequence (Q60492 whole entry): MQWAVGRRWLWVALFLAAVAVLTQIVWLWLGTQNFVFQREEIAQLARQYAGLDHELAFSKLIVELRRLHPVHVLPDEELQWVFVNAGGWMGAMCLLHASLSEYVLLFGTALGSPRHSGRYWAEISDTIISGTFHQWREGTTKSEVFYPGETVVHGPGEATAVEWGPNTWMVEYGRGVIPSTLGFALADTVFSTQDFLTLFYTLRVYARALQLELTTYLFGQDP
# Protocol description: In Vitro Sigma Receptor Binding, [3H](+)-3-PPP
# Set-up: species or system guinea pig
# Condition label: guinea pig brain; 45 minutes at 25° C.; read-out: Sigma [3H](+)-3-PPP binding IC50
Measured IC50, listed per entry for reference.
Readout type: IC50

{"columns": ["Molecule", "Endpoint value"],
 "data": [
  ["c1ccc2c3c([nH]c2c1)CC1CCC3N1 (stereo not shown) [1 H H -- H 2]", "2180 nM"],
  ["Fc1ccc(C(=CCCN2C3CCCC2c2c([nH]c4ccccc24)C3)c2ccc(F)cc2)cc1 (stereo not shown) [11 H H (CH2)2 CHC (4-FPh)2 3]", "> 10000 nM"],
  ["O=C(CCCN1C2CCC1c1c([nH]c3ccc(F)cc13)C2)c1ccc(F)cc1 (stereo not shown) [4 F H (CH2)3 CO 4-FPh 2]", "408 nM"],
  ["O=C(CCCCN1C2CCC1c1c([nH]c3ccccc13)C2)c1ccc(F)cc1 (stereo not shown) [1 H H (CH2)4 CO 4-FPh 2]", "224 nM"],
  ["c1ccc(CCCCCN2C3CCC2c2c([nH]c4ccccc24)C3)cc1 (stereo not shown) [1 H H (CH2)5 Ph 2]", "348 nM"],
  ["Fc1ccc(CCCCN2C3CCCC2c2c([nH]c4ccccc24)C3)cc1 (stereo not shown) [11 H H (CH2)4 4-FPh 3]", "279 nM"],
  ["Clc1ccc(OCCN2C3CCC2c2c([nH]c4ccccc24)C3)cc1 (stereo not shown) [1 H H (CH2)2 O-4-ClPh 2]", "5980 nM"],
  ["c1ccc(OCCCN2C3CCC2c2c([nH]c4ccccc24)C3)cc1 (stereo not shown) [1 H H (CH2)3 OPh 2]", "262 nM"],
  ["O=C1c2ccccc2C(=O)N1CCCN1C2CCC1c1c([nH]c3ccc(F)cc13)C2 (stereo not shown) [6 F H (CH2)3 2-phthalimido 2]", "3330 nM"],
  ["c1ccc(OCCN2C3CCC2c2c([nH]c4ccccc24)C3)cc1 (stereo not shown) [1 H H (CH2)2 OPh 2]", "534 nM"],
  ["c1ccc(CCCCN2C3CCC2c2c(n(Cc4ccccc4)c4ccccc24)C3)cc1 (stereo not shown) [5 H Bn (CH2)4 Ph 2]", "396 nM"],
  ["O=C(CCCN1C2CCCC1c1c([nH]c3ccc(F)cc13)C2)c1ccc(F)cc1 (stereo not shown) [12 F H (CH2)3 CO 4-FPh 3]", "103 nM"],
  ["CC(C)n1c2c(c3ccccc31)C1CCC(C2)N1CCCCc1ccccc1 (stereo not shown) [5 H 2-Pr (CH2)4 Ph 2]", "705 nM"],
  ["Fc1ccc(C(=CCCN2C3CCCC2c2c([nH]c4ccc(F)cc24)C3)c2ccc(F)cc2)cc1 (stereo not shown) [12 F H (CH2)2 CHC (4-FPh)2 3]", "10000 nM"],
  ["CC(CCc1ccccc1)N1C2CCC1c1c([nH]c3ccccc13)C2 (single isomer, unassigned) [1 (low Rf) H H CH(CH3)(CH2)2 Ph 2]", "1160 nM"],
  ["OCCCN1C2CCC1c1c([nH]c3ccc(F)cc13)C2 (stereo not shown) [4 F H (CH2)3 OH 2]", "1380 nM"]
]}

====

Measured Ki, listed per entry for reference.
# Tested on: dopamine (D-2) receptors (Rattus norvegicus)
# Construct: the corpus striatum was dissected and homogenized; from tissue; host or cells: rat corpus striatum membranes
# Protocol description: In Vitro Dopamine (D-2) Receptor Binding, [3H]sulpiride
# Condition label: rat corpus striatum; 3 nM [3H]sulpiride; read-out: Dopamine D-2 [3H]sulpiride Ki

{"columns": ["Compound", "Tested on", "Unit", "Ki"],
 "data": [
  ["c1ccc(OCCCN2C3CCC2c2c([nH]c4ccccc24)C3)cc1 (stereo not drawn) [1 H H (CH2)3 OPh 2]", "dopamine (D-2) receptors (Rattus norvegicus)", "nM", 1270],
  ["O=C(CCCN1C2CCC1c1c(n(-c3ccccc3)c3ccccc13)C2)c1ccc(F)cc1 (stereo not drawn) [2 H Ph (CH2)3 CO 4-FPh 2]", "dopamine (D-2) receptors (Rattus norvegicus)", "nM", 840],
  ["Fc1ccc2[nH]c3c(c2c1)C1CCCC(C3)N1 (stereo not drawn) [12 F H -- H 3]", "dopamine (D-2) receptors (Rattus norvegicus)", "nM", 58300],
  ["c1ccc2c3c([nH]c2c1)CC1CCC3N1 (stereo not drawn) [1 H H -- H 2]", "dopamine (D-2) receptors (Rattus norvegicus)", "nM", 100000],
  ["Fc1ccc2[nH]c3c(c2c1)C1CCC(C3)N1CCCc1cccnc1 (stereo not drawn) [4 F H (CH2)3 3-pyridyl 2]", "dopamine (D-2) receptors (Rattus norvegicus)", "nM", 12200],
  ["c1ccc(OCCN2C3CCC2c2c([nH]c4ccccc24)C3)cc1 (stereo not drawn) [1 H H (CH2)2 OPh 2]", "dopamine (D-2) receptors (Rattus norvegicus)", "nM", 2600],
  ["Fc1ccc2[nH]c3c(c2c1)C1CCC(C3)N1Cc1ccccc1 (stereo not drawn) [4 F H CH2 Ph 2]", "dopamine (D-2) receptors (Rattus norvegicus)", "nM", 3740],
  ["Cn1c2c(c3ccccc31)C1CCC(C2)N1CCCCc1ccccc1 (stereo not drawn) [5 H CH3 (CH2)4 Ph 2]", "dopamine (D-2) receptors (Rattus norvegicus)", "nM", 1820],
  ["Fc1ccc2[nH]c3c(c2c1)C1CCC(C3)N1CCCN1Cc2ccccc2C1 (stereo not drawn) [7 F H (CH2)3 2-isoindolinyl 2]", "dopamine (D-2) receptors (Rattus norvegicus)", "nM", 1780]
]}

====

# Tested on: sigma receptor ([3H]DTG site)
# Protocol description: In Vitro Sigma Receptor Binding, [3H]DTG
# Condition label: guinea pig brain; 45 minutes at 25° C.
pIC50: −log10 of the molar value.
# cutoff 7 applies to pIC50; >= gives Satisfied, < gives Not satisfied

{"columns": ["Compound", "Assigned label"],
 "data": [
  ["c1ccc(CCCCN2C3CCC2c2c(n(Cc4ccccc4)c4ccccc24)C3)cc1 (stereo not drawn)", "Not satisfied"],
  ["Fc1ccc2[nH]c3c(c2c1)C1CCCC(C3)N1 (stereo not drawn)", "Not satisfied"],
  ["O=C(CCCN1C2CCC1c1c(n(-c3ccccc3)c3ccccc13)C2)c1ccc(F)cc1 (stereo not drawn)", "Not satisfied"],
  ["O=C(CCCN1C2CCCC1c1c([nH]c3ccc(F)cc13)C2)c1ccc(F)cc1 (stereo not drawn)", "Satisfied"],
  ["O=C(COc1ccc(Cl)c(Cl)c1)N1C2CCC1c1c([nH]c3ccccc13)C2 (stereo not drawn)", "Not satisfied"],
  ["CC(C)n1c2c(c3ccccc31)C1CCC(C2)N1CCCCc1ccccc1 (stereo not drawn)", "Not satisfied"],
  ["OCCCN1C2CCC1c1c([nH]c3ccc(F)cc13)C2 (stereo not drawn)", "Not satisfied"],
  ["O=C(CCCN1C2CCCC1c1c([nH]c3ccccc13)C2)c1ccc(F)cc1 (stereo not drawn)", "Satisfied"],
  ["Fc1ccc(C(=CCCN2C3CCCC2c2c([nH]c4ccc(F)cc24)C3)c2ccc(F)cc2)cc1 (stereo not drawn)", "Not satisfied"],
  ["O=C1c2ccccc2C(=O)N1CCCN1C2CCC1c1c([nH]c3ccc(F)cc13)C2 (stereo not drawn)", "Not satisfied"],
  ["Clc1ccc(OCCN2C3CCC2c2c([nH]c4ccccc24)C3)cc1 (stereo not drawn)", "Not satisfied"],
  ["CC(CCc1ccccc1)N1C2CCC1c1c([nH]c3ccccc13)C2 (single isomer, unassigned) [1 (high Rf) H H CH(CH3)(CH2)2 Ph 2]", "Satisfied"],
  ["Fc1ccc2[nH]c3c(c2c1)C1CCCC(C3)N1CCCCc1ccccc1 (stereo not drawn)", "Satisfied"],
  ["O=C(CCCN1C2CCC1c1c([nH]c3ccc(F)cc13)C2)c1ccc(F)cc1 (stereo not drawn)", "Satisfied"],
  ["Fc1ccc(C(=CCCN2C3CCCC2c2c([nH]c4ccccc24)C3)c2ccc(F)cc2)cc1 (stereo not drawn)", "Not satisfied"]
]}
